system.tested: human chemokine receptor CCR1 (Homo sapiens, UniProt P32246)
Construct: expressed in transfected cells; host or cells: HEK293T, transient
Sequence (P32246 whole entry): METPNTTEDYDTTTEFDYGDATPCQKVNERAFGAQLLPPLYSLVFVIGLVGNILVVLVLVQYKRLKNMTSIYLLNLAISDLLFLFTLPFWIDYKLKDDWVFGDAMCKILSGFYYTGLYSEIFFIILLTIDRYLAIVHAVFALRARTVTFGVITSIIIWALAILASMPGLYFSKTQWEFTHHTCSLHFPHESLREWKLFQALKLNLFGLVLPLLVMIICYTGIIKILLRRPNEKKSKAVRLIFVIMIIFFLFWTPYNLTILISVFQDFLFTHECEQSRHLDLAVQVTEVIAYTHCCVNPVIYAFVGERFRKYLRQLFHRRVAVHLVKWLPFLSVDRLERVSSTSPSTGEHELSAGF
measurement.notes: Cellular NanoBiT miniGi recruitment assay
Type: cell-based
conditions: in the presence of CCL5 (3 nM); read-out: IC50, miniGi recruitment
value.kind: pIC50
The value called pIC50 is obtained by taking minus log10 of the concentration in mol/L.

Reported human chemokine receptor CCR1 (Homo sapiens, UniProt P32246) pIC50 for item O=C(C1=C(O)C(=O)N(CCc2ccc(O)cc2)C1c1ccc(F)cc1)c1ccccc1 (racemic) was 4.16

###

system.tested: CCR1 (Homo sapiens, UniProt P32246)
Sequence (P32246 whole entry): as above
measurement.notes: Membrane-based NanoBRET competition assay with 12 (2000 nM) and CCR1_Nluc membranes
Format: binding
Parameters: Promega pNLF1-C (Nluc) #CCR010TN00; host or cells: HEK293T, transient (PEI)
conditions: compound at 20 μM, 12 (2000 nM)
value.kind: % inh. of tracer binding, CCR1

// field: % inh. of tracer binding, CCR1; key: NC(=O)CSc1nnc(-c2ccc(Cl)cc2)n1C1CCCCC1 ; value = ≥ 50%

// field: % inh. of tracer binding, CCR1; key: CC(=O)C1=C(O)C(=O)N(c2ccc(Br)cc2)C1c1ccccc1[N+](=O)[O-] (stereo not drawn) ; value = ≥ 50%

// field: % inh. of tracer binding, CCR1; key: Cc1ccc(S(=O)(=O)Nc2ccc(Cl)cc2C(=O)c2ccccc2)cc1 ; value = ≥ 50%
